Answer each item with its documented folding stability dG unfold.
assay: folding stability dG unfold from trypsin proteolysis; higher = more stable
Number only, in kcal/mol; omit the unit.

Item SAGGSAGGSAGGSMELKLKVVEKTETRSATPGEDEPLPGNSSVTYEGNTLTTTTLVLVPLSAGGSAGGSAGG [r7_506_JUSTAS] has what recorded folding stability dG unfold?
-0.728

Further, for SAGGDGPPKFEPISIPIGDGVIKIWRSPNGSIHLEIMPPGGKPVASKEYPFPDGRKLKLDIQVKPPEDSAGG [r13_584_TrROS] ?
0.394

Do the same for SEEEIEERIKKLAEELGFKVTEIKIEKTDNKLTVTVTITLPNGKKLTFTVTRDKNGKLTFTPEQLKKALKSA [r9_85_TrROS_Hall] please
2.36

Do the same for SMTLITLTDPVTNVPVEKVEVRKLEDGTYEATVTTKEPSKTTTKTYPLPPDEKITDVLKSLGLKEAEINLSA [r9_492_JUSTAS] please
0.255

---

test: folding stability dG unfold from trypsin proteolysis; higher = more stable
Field: class. Source value: folding stability dG unfold. Ranges: low: < 1 kcal/mol; medium: ≥ 1 kcal/mol and < 2 kcal/mol; high: ≥ 2 kcal/mol

Assign a category based on measured folding stability dG unfold for SAGGKVKVTVTPDGTVTIEFEAESVEEAIKAAKAFLEEAGFEVESIPVEVPPDGTVKVTAKIKPKNASAGGS [r8_253_TrMRF] and give only the class name.
medium

Then STRTLTVVVEAPTLEEALAAAKALAPPGWKVTVTVERREVVDPETGETRTVLVVTVTIEPAPPPPPAEEKSA [r9_962_TrROS_Hall] ?
high

And the next one, SMKINVVINITLPDGTTVTSTLNLTESEIEKTIKEKIPSSYKVEITKKDPVDPAKLPPGSSINVDLTVNLSA [r9_803_JUSTAS] ?
medium

Same for SAGGSAPVTLETEFFGENGLLVRTEAVVDPATGEVTVRTETFPVITGPADNPDVVKKLLEEAGIDASAGGSA [r2_304_TrMRF]
low

Try this sequence next: SAGGSAGGSAGKPEFELIAKIEVNGKTYYILRNKETGEYLIYDLDTGKKYTIRKDDPNLLSAGGSAGGSAGG [r11_1007_TrROS_Hall]
high

Now consider SAGMVKVEVEYRPLPNGTVEVTVKLTITEPVPDEDGNLYYKTKTLTITVPTTSLSEAPKHVEEFIKKLSAGG [r19_218_TrMRF] .
high

Now consider SAGGASLDDLPLEGIEVLEEEVIPLPNGSTLRKFLVKKPSPGPPELLVEVTEFVDEGSSSVSVTPLGSAGGS [r16_469_JUSTAS] and answer again.
low

SAGGIEIPVNPHPSEDGQPYVMFTLEIEPKDDNGKKQERPIPFMFDSPDDAEEFASEAAPDGYKIRISAGGS [r16_652_TrROS] ?
low

Field entry: SAGGSAGGSASMDTVVEVGPEILSTGLPIEKVTYDPNTGKTYIETPDKLYVIDSDGNITVDASAGGSAGGSA [r18_445_JUSTAS]
medium

And then SAGGSAGGSDDDENQKENQKAKPIKLEPIVEITVPYPDGFSLTVPIWRWPDGGIGIELEIFPLGSAGGSAGG [r6_326_TrROS] , what is it?
low

Same for SAGGFTIEELAEKFPNVEVYVQRFGNKYLIQFEFEDKDRKYQVVIKYDGPGKIDIKVMPPNQDAEEALSAGG [r13_859_TrROS]
high

Check SAGGSAGGSAGGMTLEELKNLKPGEEVEIEIEVYDKNGKKVSKYRIRIYNDKIEIEKLPSAGGSAGGSAGGS [r10_394_TrROS_Hall] too.
high

Moving on to the next sequence: SAGKKSTLTIDLPGSTVTLTYDPATGKVRITVNLGVAVAGIDPETGKPGIVTGSVTLEADIDVPPGAPISAG [r5_195_TrMRF]
high

---

assay: folding stability dG unfold from chymotrypsin proteolysis; higher = more stable
So I've got a bunch of sequences here, and I need their folding stability dG unfold values.
Express the result in kcal/mol but write the number alone.

I have this sequence here, STLTLEELKERFPELSEEELEALAERLAALPAPVTVTVEVRPAPPPPVEERELSEEELLEARLRPGERVESA [r9_1024_TrROS_Hall] , and I need its recorded folding stability dG unfold.
1.94

Try SAGGSAGGSMVKTFPESEPGERVTRELILTPDSIEIVETVVKTDPATGKPVEEVLLRRSTLPLSAGGSAGGS [r12_70_JUSTAS] next.
-0.315

Entry to check: SAGGSAGGSMTLIGTTTLPSPDGSLVTVDTYKVPGSDELVAKVTTLNGTTWTTETRPLSEFLKSAGGSAGGS [r12_1063_JUSTAS]
0.913

Here is the next sequence: SAGKKIELTFRNPDGWMIRITIEKKPNGGFQITEITWEPYPNGRMSAKIYVPNGKTIEVNSWDDILDALSAG [r5_618_TrROS]
2.57

Also, SAGGSAGGSAGGGVVTLPDLKGLSEEELKALAEEIAKKLGLENVPLKLEFGEDGNLTLVLSAGGSAGGSAGG [r7_810_JUSTAS] please.
1.24

Again, but for SKEKVKVEIKLTVTKVFPPEELEKDPKTGKYRNKDTGKWFEPPKVVVKELTLTIEMSKEEVEKLLKELLKSA [r9_165_TrROS_Hall]
2.63

Okay, and SAGGDEIVERVRQLFEDLGFPVEIVDDDAPDGVLRVRISPEAVEKLGPLVINLPFPDIKEVRTELLPSAGGS [r8_318_TrMRF] ?
1.5

---

Provide the recorded folding stability dG unfold for the entries that follow.
assay: folding stability dG unfold (combined trypsin and chymotrypsin); higher = more stable
Use kcal/mol as the unit, but write only the number.

folding stability dG unfold lookup needed for SAGGGMVRPSIKITKHPDTYVATVTVTHPHRPVTVTLPFSSEPEAISEAEKIVEELIATPVPSPAGASAGGS [r16_24_JUSTAS] , thanks.
0.841

Next entry: SAGGSAGGSAGGLKIQRFPDGNWYRIYLPNGNEHHIPMDEPIKVPNAKEPVKIEPVPPDDSAGGSAGGSAGG [r7_968_TrROS]
-0.961

Cool, now SAGGSAGGSAKPNNAELVKVTYDPETGDFYAFYKIKNTDTVYVLRFNKDGTVEVKEYKFSEASAGGSAGGSA [r18_521_TrMRF]
3.68

Another sequence to check: SAGGSAGGSDPSEVRLTFTVTVELTFDAVLFYEPGTGRLVAVAPYLRVEVEVEVTLTFPADALSAGGSAGGS [r12_600_TrMRF]
4.63

Note, next up: SAGGSAGGNPVRYRVTITVTSPTGGSPVIELELDDPAELAEVEALAAELAAAPVTTTVTVEPIGSAGGSAGG [r6_743_JUSTAS]
0.807

---

assay: folding stability dG unfold (combined trypsin and chymotrypsin); higher = more stable
PROPERTY: folding stability dG unfold (kcal/mol)
Provide only the numeric value, understood in kcal/mol.

Returns the measured folding stability dG unfold for the input sequence. Input: SAGGSAGGSAGKKVKISLILIAKSPEEAEEAAKAIKEAFGSEDVEVDIIEIPAKLGPGKLSAGGSAGGSAGG [r17_285_TrMRF]
0.378

Same question for SAGGSAGGSAGGMYYAIITNKNGKKKIIKFKSLEEMEEAAKKNNIKIEIIPKEELEKLLSAGGSAGGSAGGS [r10_66_TrROS_Hall] please.
3.65

Further, for SAGGSAGGSAGGKKVTITLKDANGKELKIEVKEGEEVTIEVGGKKYKLTVKDGKIELKPVSAGGSAGGSAGG [r7_510_TrROS_Hall] ?
4.61

Repeat with SDYYIINIKIEVYYDGKPVREIPIFILVPPEQALMIAETIAEMLPGYKVKIKINVYRIPEDDPELREAFGSA [r9_782_TrROS]
2.93

One more sequence: SAGGDYVKIDFTVMIPTPEQAEEMAEEIKNFFRFMGIKEVKIKVQRNPNNGMYYVTVDIEIRMPPGAVSAGG [r19_92_TrROS]
4.82

Next up: SMVVIEVEPNPETNSLTAKVYLPKDGKKVVEIERSPDGTVKVTVYYKDGSKEEFTFPEDIPIEEAIKKAISA [r9_346_TrMRF]
1.15

Ok, now MKEITVTLPVPEEVLAAIRAGKPLPLEEIKERVKEEIAKRLGYKNVTIKSVKVEKLPDGSLVIKVKVEFLPS [r1_290_JUSTAS]
4.15

---

test: folding stability dG unfold from chymotrypsin proteolysis; higher = more stable
Kindly state folding stability dG unfold for each of the entries shown.
Just the number in kcal/mol, nothing appended.

Find the recorded folding stability dG unfold belonging to SAGGSAGGSAPKILIVEDEKTGKLYAFVYDKDTKELYVAEFTYDKKTKKLTVKIKKVSLEDLSAGGSAGGSA [r18_505_TrROS_Hall] and report it.
4.67

Now the same for SAMVVTYDPATGKITVNVTLYVEEPLTPEERAALAAAIKAALAAAHPDVDVTVTLHPAPSPEEVEKLAASAG [r14_406_JUSTAS]
2.23

Could you do the same for SAGGSAGGSAGGVTVSPEEYLATFPPGLTLRDSAGNLHELGDRAPVDPAAPVTLLSPEELSAGGSAGGSAGG [r7_507_JUSTAS] , please?
0.464

Same read-out for SAKKKKVKKKEIKVTLKLKLPGAKIKSVKVEKKGDKLVITVEIELENGEKLKLTAVFDKDGKIVKIELESAG [r14_719_TrROS_Hall] ?
1.96

Can you check SMPLTPEEVEEVVEAVAKELEEETGEEVKAEVFYDPETGRFYAVIELPDGRRVRIEIDPETGEVRVEVEASA [r9_9_TrMRF] next?
4.17

Another sequence to look at: SAGGSAGGSAGGKKIKIPKKVKVKVVKKKDGKLLVYLEKTGKVIELPVEDLKNITAEDLSAGGSAGGSAGGS [r10_709_TrROS_Hall]
-0.63

Entry EEIIEKLKEEGYEIVSVSIKEVNGKKKIFIAVRRKDKPEYLLVEIDLENKEVKIKKVKKFPKGESIEDILSS [r1_383_TrROS_Hall] please
3.98

Now this one: SAGGSAGGSAGGDSNVDNFTLMFPWGWVVKIDITYTDGGLETDWEIIEPVPPLPPDDKNKSAGGSAGGSAGG [r7_845_TrROS]
3.54

Param item: SAGGSAMITVDPGEKTVTVEIDLPVYKSYTYPGGETKAYPLELPEEEAKKVADEIAEAFKKKLEGESAGGSA [r15_365_JUSTAS]
0.49

How about this sequence: SAGGSAGGSAMLRIKIYYKKNGEEYEIEVEGSLEEALKEAAKKLGLSEDEIKKIEIEELPESAGGSAGGSAG [r3_79_TrROS_Hall]
3.73

Next entry: SAGGSAGGELEVEIVSVEFDEETKEIRIKIYVNGKLIEEKTIKIEPVKVYYKTKDGKKVSAEDLSAGGSAGG [r6_832_TrROS_Hall]
1.16

Then what about the sequence SAGGKIKIRNPKTGLIVEVLEYNPETGKFKVKVTFPDGSVEEKEFPGSLEDLIEWLESEGFPFEVEGSAGGS [r16_748_TrMRF] ?
3.72

Now give it for SAGMMTIEIELKNGKKIKIEVEKKNGKYIIKITVYDKNGKKVKEVKIEVPKKNMSLEEIIKEALKKLLKSAG [r5_630_TrROS_Hall] too.
3.71

Again, but for SISITLPDGTKTVSQSFNPEGNTITYTMEAPGKKITITLTEKVVGGSKEISVKITTDPVPLTPEEVAALKAS [r1_154_JUSTAS]
1.94

Can you handle SAGGSAGGSAGGSDPSATLRVTLTPRTTRTRLVTDEDGVERTYTFGGDGTLSVSLLPSGSAGGSAGGSAGGS [r4_162_TrMRF] next?
0.647

Now give it for SAGGSAGGSAGGKTLRIKVEETEYVVLFPNTGRLLVIPPGYEAEIELDDAPDVLILGRPPSAGGSAGGSAGG [r11_939_TrMRF] too.
1.79

Now consider SAGGGSSSTTLTLREVTEVIVIPVPPEEEELAEELAKKYESQGIKVELERLPDGTWKLTLTYYRGVSLSAGG [r13_702_JUSTAS] and answer again.
0.827

Now consider SKKVVFVTYPKTSVKEIVEKLKENPNTEFVFLMPSSVGPEFYEKLKKALKEANIPKEQKVLFLPVEENSLSA [r9_670_TrMRF] and answer again.
3.11

// same read-out, input: SAGKTIVIKAKTAEEAINALLKELKKKGEKVKITVTVYDKNGKEVYRVTIEIDPKEKGKIKIKVEKVPSAGG [r19_85_TrROS_Hall]
3.65

Entry SAGKKLIIRVEVYRREKNENGEIKKVTETLEVPPGATIEELVKALAPPGYTIRIEIIENGKIIETIEIKSAG [r5_278_TrROS_Hall] please
3.59

Also, SAGGSAGGSAGEEKEYRIVVPFDSDDPEAFVRAVFDGIPPDVPIKAIDFNPELGYGVVVASAGGSAGGSAGG [r11_698_TrMRF] please.
1.07

// same read-out, input: SAGGSAGGAFTVTLPDGRPVRVRLLGATFTFEVRIPPGVPDVVPGAKPDEVVKVTRVVLVVSLDSAGGSAGG [r6_907_TrMRF]
4.57

Now give it for SAGGSAKDEKVVVIVRREVRLRSRPKVDLGEGNPRVEFESSVEVRVPFLVLPEDDPVARELRELEGSAGGSA [r15_470_TrMRF] too.
-0.255

Request: SAGGMITLTVTREDWDTVYAKLKAEKNVTVKVVKGNTWSTYPASEVKALREEIPADPNEPLTLEIVESAGGS [r16_377_JUSTAS]
0.382

How about SAGGDSISDIESVNIYSFNIPSNPYPYIIAELTIPDGRKIIAIYDPSTNTVTIIIEDDGKPRIITLPASAGG [r13_960_TrMRF] ?
2.9

Also, SAGGSAGGMVIKIITNAPSLEEAEEIAKRVAAELRERFGGPDVEIVLDVEVIPLPPVPTEDGKPSAGGSAGG [r6_182_TrMRF] please.
1.97

And for SMPLTPAEVAEARARAAREAAEAAAGVPVTVRVTLSTPDRELTVTLPATESLAAVMKAHPDVTVEVEVEASA [r9_513_JUSTAS] ?
0.0452

Values were extracted from the supplement of paper PMC12764529.
